study target: Steroidogenic factor 1 (Homo sapiens)
Sequence (Q13285 whole entry): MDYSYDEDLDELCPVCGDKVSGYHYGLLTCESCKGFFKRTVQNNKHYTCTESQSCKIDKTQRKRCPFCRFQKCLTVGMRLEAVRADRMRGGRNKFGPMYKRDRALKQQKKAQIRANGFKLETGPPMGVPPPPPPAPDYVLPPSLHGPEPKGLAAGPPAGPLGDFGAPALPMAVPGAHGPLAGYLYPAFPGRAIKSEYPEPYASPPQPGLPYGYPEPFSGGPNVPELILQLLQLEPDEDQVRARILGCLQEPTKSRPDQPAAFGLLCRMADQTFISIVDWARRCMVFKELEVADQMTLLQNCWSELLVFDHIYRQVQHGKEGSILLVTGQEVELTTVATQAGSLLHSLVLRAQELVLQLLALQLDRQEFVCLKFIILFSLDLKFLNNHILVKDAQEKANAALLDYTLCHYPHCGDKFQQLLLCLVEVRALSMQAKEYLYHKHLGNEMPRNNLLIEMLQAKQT
protocol text: Counterscreen for inverse agonists of the liver receptor homolog-1 (LRH-1; NR5A2): Luminescence-based cell-based high throughput dose response assay to identify inverse agonists of the Steroidogenic Factor 1 Nuclear Receptor (SF1; NR5A1).
Format: functional
Activity calls are given as the source filed them.
Outcomes: active, inactive

line notation | category label
Cc1onc(-c2cccc(Cl)c2Cl)c1C(=O)ON=C(N)c1ccc([N+](=O)[O-])o1 | active
COC(=O)c1ccc(CNC(=O)COC(=O)c2cc(Cl)nc(Cl)c2)cc1 | inactive
CCOc1ccc(NC(=O)COC(=O)CC2CCCCC2)cc1 | inactive
Cc1cc(Br)ccc1NC(=O)CN1C(=O)CCC1=O | active

----------
Listing of entries alongside the reported EC50.
protocol text: alpha-synuclein stem-loop luciferase translation blockers – H4 neuroglioma cells, luminescence, confirmation (AID 1988)
Format: functional, cell-based
Active and inactive are the calls of the source.

compound | EC50
CCc1cc(C(=O)N/N=C/c2ccc(O)cc2O)c2ccccc2n1 | 7.63 µM (active)
CC(C)c1ccc(-c2[nH]c(N3CCCC3)nc3nnc(N)c2-3)cc1 | 12.9 µM (active)
Cc1sc2ncnc(N3CCOCC3)c2c1C | 17.5 µM (active)
COc1ccc(/N=C2/C(=N\c3ccc(OC)cc3)N(c3ccc(OC)cc3)C(=S)N2c2ccc(N(C)C)cc2)cc1 | 0.123 µM (active)
O=C(Nc1cccc(NC(=O)c2ccccc2Cl)c1)c1ccc([N+](=O)[O-])o1 | 8.12 µM (active)
CCOc1ccccc1NC(=O)Cn1nnc(C(=O)NCc2ccc3c(c2)OCO3)c1N | > 120 µM (not active)
COc1ccccc1/C=C1\SC(=S)N(CCC(=O)Nc2cc(C)on2)C1=O | > 120 µM (not active)
COc1ccccc1C(CCNCc1ccc(N(C)C)cc1)c1ccc(OC(C)C)cc1 (stereo not drawn) | 7.66 µM (active)

----------
study target: fMet-Leu-Phe receptor (Homo sapiens, UniProt P21462)
Sequence (P21462 whole entry): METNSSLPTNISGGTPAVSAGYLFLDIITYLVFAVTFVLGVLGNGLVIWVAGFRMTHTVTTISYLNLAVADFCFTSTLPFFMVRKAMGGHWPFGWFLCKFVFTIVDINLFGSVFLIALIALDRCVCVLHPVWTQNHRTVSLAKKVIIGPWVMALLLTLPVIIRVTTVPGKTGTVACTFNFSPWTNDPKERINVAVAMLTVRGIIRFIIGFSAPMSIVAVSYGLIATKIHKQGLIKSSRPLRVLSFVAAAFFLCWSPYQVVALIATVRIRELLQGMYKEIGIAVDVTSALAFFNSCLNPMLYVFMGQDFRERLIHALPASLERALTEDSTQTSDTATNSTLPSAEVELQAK
protocol text: formyl peptide receptor binders – dose response (AID 519)
Type: functional
The source made the active and inactive calls.
Outcomes: T = active, F = inactive

compound | category label
COC(=O)C1(S(=O)(=O)c2cccc3nsnc23)CC1 | F
COc1ccc2nc(Nc3nc(C)c(C(C)=O)s3)sc2c1 | F
CCCOc1ccc(C2C(C(=O)c3ccc(C)o3)=C(O)C(=O)N2CCCn2ccnc2)cc1 (centres undefined) | T
COc1ccc(S(=O)(=O)NC(C)C(=O)Nc2cccc(C(C)=O)c2)cc1 (centres undefined) | F

----------
study target: Galanin receptor type 3 (Homo sapiens, UniProt O60755)
Sequence (O60755 whole entry): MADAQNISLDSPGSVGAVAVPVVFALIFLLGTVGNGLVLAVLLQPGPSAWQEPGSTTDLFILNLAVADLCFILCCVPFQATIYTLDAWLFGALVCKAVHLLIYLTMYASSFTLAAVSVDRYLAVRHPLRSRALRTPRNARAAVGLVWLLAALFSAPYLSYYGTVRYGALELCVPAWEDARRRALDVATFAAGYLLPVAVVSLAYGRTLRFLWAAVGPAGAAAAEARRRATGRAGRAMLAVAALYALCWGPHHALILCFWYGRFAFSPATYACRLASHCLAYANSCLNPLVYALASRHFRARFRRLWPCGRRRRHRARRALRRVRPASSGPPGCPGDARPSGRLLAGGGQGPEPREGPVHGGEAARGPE
protocol text: Fluorescence-based cell-based primary high throughput dose response assay to identify antagonists of the Galanin Receptor 3 (GalR3).
Type: functional
Active and inactive are the calls of the source.
Outcomes: Yes for active, No for inactive

line notation | category label
Cc1ccnc(Nc2nc(-c3sc(C)nc3C)cs2)c1 | No
S=C(NCCc1ccccc1)Nc1cccc2cnccc12 | Yes
CCOc1cc(S(=O)(=O)NCc2ccncc2)ccc1Cl | Yes
COC(=O)C1CCN(Cc2ccc(OCCCN3CCN(c4ccc([N+](=O)[O-])cc4)CC3)cc2)CC1 | Yes

----------
study target: Glyceraldehyde-3-phosphate dehydrogenase (Homo sapiens)
Sequence (P04406 whole entry): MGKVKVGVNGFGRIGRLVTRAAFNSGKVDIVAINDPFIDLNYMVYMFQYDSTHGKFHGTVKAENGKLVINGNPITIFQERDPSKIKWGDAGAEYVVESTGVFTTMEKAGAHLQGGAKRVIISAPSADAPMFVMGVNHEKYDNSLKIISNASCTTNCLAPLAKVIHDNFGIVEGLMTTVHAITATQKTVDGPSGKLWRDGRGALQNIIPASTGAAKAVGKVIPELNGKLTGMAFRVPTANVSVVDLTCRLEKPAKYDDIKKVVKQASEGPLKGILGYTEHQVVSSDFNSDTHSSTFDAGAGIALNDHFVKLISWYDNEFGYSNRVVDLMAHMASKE
Listing of entries alongside the reported IC50.
endpoint: IC50

line notation | reported value
COc1ccccc1-c1nnc(SCc2ccc(C(=O)O)cc2)[nH]1 | > 100 µM (not active)
Oc1cc(-c2cccc3ccccc23)[nH]n1 | > 100 µM (not active)
CSc1n[nH]c(NC(C)=O)n1 | > 10 µM (inconclusive)
O=S(=O)(Nc1ccncn1)c1cc(Cl)ccc1F | > 100 µM (not active)
